Entries annotated with measured IC50
measured on: FL_Reg1 (full-length human Regnase-1) phosphorylation by TBK1 (Homo sapiens, UniProt Q5D1E8)
Construct: made in house; host or cells: Expi293 cells
Sequence (Q5D1E8 whole entry): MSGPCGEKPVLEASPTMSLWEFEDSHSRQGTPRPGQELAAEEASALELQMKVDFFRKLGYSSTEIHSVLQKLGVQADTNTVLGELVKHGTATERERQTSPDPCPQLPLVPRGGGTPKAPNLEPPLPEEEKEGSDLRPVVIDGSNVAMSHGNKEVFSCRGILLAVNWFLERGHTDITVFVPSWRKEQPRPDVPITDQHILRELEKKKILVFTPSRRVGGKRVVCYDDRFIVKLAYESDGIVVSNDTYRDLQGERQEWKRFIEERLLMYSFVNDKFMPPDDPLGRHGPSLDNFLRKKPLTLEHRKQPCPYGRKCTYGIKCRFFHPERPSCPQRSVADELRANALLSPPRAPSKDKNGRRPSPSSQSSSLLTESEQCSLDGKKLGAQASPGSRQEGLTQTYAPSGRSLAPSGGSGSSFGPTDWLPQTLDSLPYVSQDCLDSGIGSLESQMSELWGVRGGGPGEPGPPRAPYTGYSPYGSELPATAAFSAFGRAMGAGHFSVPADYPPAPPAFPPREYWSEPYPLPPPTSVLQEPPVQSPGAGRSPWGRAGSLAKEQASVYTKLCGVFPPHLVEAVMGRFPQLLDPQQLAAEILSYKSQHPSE
test summary: Regnase-1 phosphorylation inhibition by compounds (AlphaScreen), TBK1, full-length Regnase-1
Format: biochemical
particulars: Table 13; phosphorylation by TBK1; read-out: Phosphorylation inhibition FL_Reg1, 50% inhibition concentration (TBK1)
Residues, ends and D or L forms follow the SMILES beside them.
experimental endpoint: IC50 (µM)

INSERT INTO measurements (compound, experimental_endpoint, test_result) VALUES
  ('CC[C@H](C)[C@@H]1NC(=O)[C@H](CCCCN)NC(=O)[C@H](Cc2ccc(O)cc2)NC(=O)[C@H](Cc2c[nH]c3ccccc23)NC(=O)[C@H](CO)NC(=O)[C@H](CO)NC(=O)[C@H]([C@@H](C)O)NC(=O)[C@@H]2CCCN2C(=O)[C@@H](C)N(C)C(=O)C[C@@H](C(=O)N2CCCC2)NC(=O)[C@H](Cc2c[nH]c3ccccc23)NC1=O [PP23] (HELM PEPTIDE1{[C[C@H](C(=O)[*:2])N(C)[*:1]].P.T.S.S.W.Y.K.I.W.D.[C1CCN([*:1])C1]}$PEPTIDE1,PEPTIDE1,1:R1-11:R3$$$V2.0)', 'IC50', 18.8),
  ('CC[C@H](C)[C@@H]1NC(=O)[C@H](CCCNC(=N)N)NC(=O)[C@H](Cc2ccc(O)cc2)NC(=O)[C@H](Cc2c[nH]c3ccccc23)NC(=O)[C@H](CO)NC(=O)[C@H](CC(N)=O)NC(=O)[C@H](C)N(C)C(=O)C[C@@H](C(=O)N2CCCC2)NC(=O)[C@H](CC(C)C)NC(=O)CNC(=O)[C@H](Cc2c[nH]c3ccccc23)NC1=O [PP22] (HELM PEPTIDE1{[meA].N.S.W.Y.R.I.W.G.L.D.[C1CCN([*:1])C1]}$PEPTIDE1,PEPTIDE1,1:R1-11:R3$$$V2.0)', 'IC50', 24.3),
  ('CC[C@H](C)[C@@H]1NC(=O)[C@H](Cc2c[nH]c3ccccc23)NC(=O)[C@H](CCCNC(=N)N)NC(=O)[C@H](Cc2ccccc2)NC(=O)[C@H](CCC(N)=O)NC(=O)[C@H](C)NC(=O)[C@H](Cc2ccccc2)NC(=O)[C@H](CCCCN)NC(=O)[C@H](C)N(C)C(=O)C[C@@H](C(=O)N2CCCC2)NC(=O)[C@@H]2CCCN2C(=O)[C@H](Cc2ccc(O)cc2)NC1=O [PP11] (HELM PEPTIDE1{[meA].K.F.A.Q.F.R.W.I.Y.P.D.[C1CCN([*:1])C1]}$PEPTIDE1,PEPTIDE1,1:R1-12:R3$$$V2.0)', 'IC50', 29.1),
  ('CC[C@H](C)[C@@H]1NC(=O)[C@H](CC(=O)O)NC(=O)[C@H](C)N(C)C(=O)C[C@@H](C(=O)N2CCCC2)NC(=O)[C@H](Cc2ccc(O)cc2)NC(=O)[C@H](CC(=O)O)NC(=O)[C@H](Cc2c[nH]c3ccccc23)NC(=O)[C@H](Cc2ccc(O)cc2)NC(=O)[C@H](CC(=O)O)NC(=O)[C@H](Cc2ccccc2)NC(=O)[C@H](Cc2c[nH]c3ccccc23)NC1=O [PP18] (HELM PEPTIDE1{[meA].D.I.W.F.D.Y.W.D.Y.D.[C1CCN([*:1])C1]}$PEPTIDE1,PEPTIDE1,1:R1-11:R3$$$V2.0)', 'IC50', 0.6);
